Where do the numbers come from? From patent US9540424B2.

# experiment-summary: Half-life of HSA and of SABA1-4 with or without HSA in mice (ELISA, WinNonlin)
# Assay type: in vivo, Ncr nude female mice
# assay-context: co-injected with HSA (3-4 molar excess), tail vein
experimental-readout: PK (T½) Mice (h)
Numbers only, in h.

Before answering, review these 2 worked examples.
molecule	experimental-readout	observed-value
SABA1.1: core SABA1 with N-terminal MGVSDVPRDLE, C-terminal EIDKPSQ and His6 tag; SEQ ID NO: 89 (protein) MGVSDVPRDLEVVAATPTSLLISWHSYYEQNSYYRITYGETGGNSPVQEFTVPYSQTTATISGLKPGVDYTITVYAVYGSKYYYPISINYRTEIDKPSQHHHHHH	PK (T½) Mice	5.6
SABA2.1: His-tagged SABA2 sequence (protein, His6 tag) MGVSDVPRDLEVVAATPTSLLISWPKYDKTGHYYRITYGETGGNSPVQEFTVPTRQTTATISGLKPGVDYTITVYAVSKDDYYPHEHRPISINYRTEIDKPSQHHHHHH	PK (T½) Mice	2.8

Consider the record given below.
Which PK (T½) Mice value belongs to SABA4: SABA core with a scaffold mutation; same BC, DE, FG loops as SABA5; in Table 5 stands for SABA4.1 (protein) EMVAATPTSLLISWEDDSYYSRYYRITYGETGGNSPVQEFTVPSDLYTATISGLKPGVDYTITVYAVTYDVTDLIMHEPISINYRT ?
4.6
